test system: human CTPS1 versus CTPS2; assay: Human CTPS1 versus CTPS2 selectivity assessment by RapidFire/MS analysis; format: biochemical; details: Table 26; RapidFire/MS IC50 ratio
measured_metric: Selectivity (fold selectivity between CTPS1 and CTPS2)

# compound, result
data = [
    ("CC(C)(C(=O)Nc1ccc(-c2cncc(C3CC3)n2)cc1F)c1ccnc(NS(=O)(=O)C2CC2)n1 [Example P128]", "+ (2-30 fold (+))"),
    ("CCOc1cncc(-c2ccc(NC(=O)C(CC)c3ccnc(NS(=O)(=O)C4CC4)n3)cc2)n1 (stereo not shown) [Example P105]", "++ (>30-60 fold (++))"),
    ("CCOc1cncc(-c2cnc(NC(=O)C(CC)c3ccnc(NS(=O)(=O)C4CC4)n3)c(C)c2)n1 (stereo not shown) [Example P155]", "+ (2-30 fold (+))"),
    ("CC(C)(C(=O)Nc1ccc(-c2cccnc2)cc1)c1ccnc(NS(=O)(=O)C2CC2)n1 [Example P59]", "+ (2-30 fold (+))"),
]

**Q:** So what's the measured Selectivity (fold selectivity between CTPS1 and CTPS2) for this one? CCOc1cncc(-c2ccc(NC(=O)C(CC)c3ccnc(NS(=O)(=O)C4CC4)n3)c(F)c2)n1 (stereo not shown) [Example P96]
**A:** + (2-30 fold (+))

**Q:** // query: CCC(C(=O)Nc1ccc(-c2cncc(OC)n2)cc1F)c1ccnc(NS(=O)(=O)C2CC2)n1 (stereo not shown) [Example P95]
**A:** + (2-30 fold (+))

**Q:** // query: CCOc1cncc(-c2ccc(NC(=O)C(CC)c3cccc(NS(=O)(=O)C4CC4)n3)nc2)n1 (stereo not shown) [Example P188]
**A:** ++ (>30-60 fold (++))

The measurements presented in this section are drawn from patent US20230020663A1.
